Target: P. furiosus (Pf) Mre11, wild type (P. furiosus, UniProt Q8U1N9 1-426)
Assay: FRET or BRET
reported-property: binding result

[[record]]
binder = "P. furiosus Rad50^NBD [change] [change]/[change], fluorophore-labeled (domain or fragment) MKLERVTVKNFRSHSDTVVEFKEGINLIIGQNGSGKSSLLDAILVGLYWPCRIKDIKKDEFTKVGARDTYIDLIFEKDGTKYRITRRFLKGYSSGEIHAMKRLVGNEWKHVTEPSSKAISAFMEKLIPYNIFLNAIYIRQGQIDAILESDEAREKVVREVLNLDKFETAYKKLSELKKTINNRIKEYRDILARTEGGAGGAGGRERVKKEIKDLEKAKDFTEELIEKVKKYKALAREAALSKIGELASEIFAEFTEGKYSEVVVRAEENKVRLFVVWEGKERPLTFLSGGERIALGLAFRLAMSLYLAGEISLLILDEPTPYLDEEREEKLITIMERYLKKIPQVILVSHDEELKDAADHVIRISLENGSSKVEVVS"
observed_value = "binds"

[[record]]
binder = "P. furiosus Rad50^NBD [change] [change], fluorophore-labeled (domain or fragment) MKLERVTVKNFRSHSDTVVEFKEGINLIIGQNGSGKSSLLDAILVGLYWPCRIKDIKKDEFTKVGARDTYIDLIFEKDGTKYRITRRFLKGYSSGEIHAMKRLVGNEWKHVTEPSSKAISAFMEKLIPYNIFLNAIYIRQGQIDAILESDEAREKVVREVLNLDKFETAYKKLSELKKTINNRIKEYRDILARTEGGAGGAGGRERVKKEIKDLEKAKDFTEELIEKVKKYKALAREAALSKIGELASEIFAEFTEGKYSEVVVRAEENKVRLFVVWEGKERPLTFLSGGERIALGLAFRLAMSLYLAGEISLLILDEPTPYLDEERRRKLITIMERYLKKIPQVILVSHDEELKDAADHVIEISLENGSSKVEVVS"
observed_value = "binds"

[[record]]
binder = "P. furiosus Rad50^NBD [change] [change], fluorophore-labeled (domain or fragment) MKLERVTVKNFRSHSDTVVEFKEGINLIIGQNGSGKSSLLDAILVGLYWPCRIKDIKKDEFTKVGARDTYIDLIFEKDGTKYRITRRFLKGYSSGEIHAMKRLVGNEWKHVTEPSSKAISAFMEKLIPYNIFLNAIYIRQGQIDAILESDEAREKVVREVLNLDKFETAYKELSELKKTINNRIKEYRDILARTEGGAGGAGGRERVKKEIKDLEKAKDFTEELIEKVKKYKALAREAALSKIGELASEIFAEFTEGKYSEVVVRAEENKVRLFVVWEGKERPLTFLSGGERIALGLAFRLAMSLYLAGEISLLILDEPTPYLDEERRRKLITIMERYLKKIPQVILVSHDEELKDAADHVIRISLENGSSKVEVVS"
observed_value = "binds"

